test system: SW1990 pancreatic adenocarcinoma cells [homozygous G12D]; experiment: Cancer cell line proliferation (CellTiter-Glo), SW1990; format: cell-based; settings: Homo sapiens, 72 hr treatment, read-out: SW1990 CTG (EC50)
Readings of EC50 for the listed compounds
recorded_metric: EC50

- compound: "C#Cc1c(F)ccc2cc(O)cc(-c3nc(OC)c4c(N5CC6CCC(C5)N6)nc(OCC5(CN6CCN(CC7CCN(Cc8ccc9c(c8)CN(C(=O)c8cc(C(C)C)c(O)cc8O)C9)CC7)CC6)CC5)nc4c3F)c12"
  recorded_metric: "EC50"
  measured_value: "< 100 nM"
- compound: "C#Cc1c(F)ccc2cc(O)cc(-c3ncc4c(N5CC6CCC(C5)N6)nc(OCC5CN(CC6(CNc7ccc8c(c7)CN(C(=O)c7cc(C(C)C)c(O)cc7O)C8)CC6)C5)nc4c3F)c12"
  recorded_metric: "EC50"
  measured_value: "100 to 1000 nM"
- compound: "C#Cc1c(F)ccc2cc(O)cc(-c3ncc4c(N5CC6CCC(C5)N6)nc(OCC5(CN6CCN(C7CCN(Cc8ccc(-n9c(C(=O)NC(C)C(F)(F)F)nnc9-c9cc(C(C)C)c(OC)cc9OC)cc8)CC7)CC6)CC5)nc4c3F)c12 (centres unmarked)"
  recorded_metric: "EC50"
  measured_value: "> 1000 nM"
- compound: "C#Cc1c(F)ccc2cc(O)cc(-c3ncc4c(N5CC6CCC(C5)N6)nc(OCC5(CN6CC(N7CCN(Cc8ccc9c(c8)CN(C(=O)c8cc(C(C)C)c(O)cc8O)C9)CC7)C6)CC5)nc4c3F)c12"
  recorded_metric: "EC50"
  measured_value: "100 to 1000 nM"
- compound: "COc1cccc2cccc(-c3ncc4c(N5CC6CCC(C5)N6)nc(OC[C@@H]5C[C@H](N6CCN(Cc7ccc8c(c7)CN(C(=O)c7cc(C(C)C)c(O)cc7O)C8)CC6)CN5C)nc4c3F)c12"
  recorded_metric: "EC50"
  measured_value: "100 to 1000 nM"
